Assay: SU-DIPG-VI glioma cell viability, MIPE4.0 library, CellTiter-Glo luminescence, qHTS (AID 1347066);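 note: cells exposed to compound for 48 hours before readout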
Details: CellTiter-Glo ATP luminescence
Results filed as inconclusive are left out. Activity calls are given as the source filed them. No cut-off is given here; in the data, nearly all actives have AC50 up to about 30 µM.
Valid outcomes are listed here; reply with one: active, inactive

[in] Fill in: this test's call for `COC[C@H]1OC(=O)c2coc3c2[C@@]1(C)C1=C(C3=O)[C@@H]2CC[C@H](O)[C@@]2(C)C[C@H]1OC(C)=O` is ___
[out] active

[in] Fill in: this test's call for `Cc1ccccc1-n1c(Cn2cnc3c(N)ncnc32)nc2cccc(C)c2c1=O` is ___
[out] active

[in] Fill in: this test's call for `COC[C@@H](NC(C)=O)C(=O)NCc1ccccc1` is ___
[out] inactive

[in] Fill in: this test's call for C#CC1(O)CCC2C3CCC4=CC(=O)CCC4(C)C3CCC21C (stereo not drawn) is ___
[out] inactive

[in] Fill in: this test's call for `CC1=C2C[C@H]3[C@@H](CC=C4C[C@@H](O)CC[C@@]43C)[C@@H]2CC[C@]12O[C@@H]1C[C@H](C)CN[C@H]1[C@H]2C` is ___
[out] inactive

[in] Fill in: this test's call for `Oc1ccc2c3c1O[C@H]1c4[nH]c5c(c4C[C@@]4(O)[C@@H](C2)N(CC2CC2)CC[C@]314)C[C@@]1(O)[C@H]2Cc3ccc(O)c4c3[C@@]1(CCN2CC1CC1)[C@H]5O4` is ___
[out] inactive

[in] Fill in: this test's call for `C[C@@H]1CC[C@@]2(OC1)O[C@H]1C[C@H]3[C@@H]4CC=C5C[C@@H](O[C@@H]6O[C@H](CO)[C@@H](O[C@@H]7O[C@@H](C)[C@H](O)[C@@H](O)[C@H]7O)[C@H](O)[C@H]6O[C@@H]6O[C@@H](C)[C@H](O)[C@@H](O)[C@H]6O)CC[C@]5(C)[C@H]4CC[C@]3(C)[C@H]1[C@@H]2C` is ___
[out] active

[in] Fill in: this test's call for `COC(=O)[C@]12CCC(C)(C)C[C@H]1[C@H]1C(=O)C=C3[C@@]4(C)C=C(C#N)C(=O)C(C)(C)[C@@H]4CC[C@@]3(C)[C@]1(C)CC2` is ___
[out] active

[in] Fill in: this test's call for CNC(=O)N1N=C(c2ccc(N)cc2)c2cc3c(cc2CC1C)OCO3 (stereo not drawn) is ___
[out] inactive

[in] Fill in: this test's call for O=P1(N(CCCl)CCCl)NCCCO1 (stereo not drawn) is ___
[out] inactive

[in] Fill in: this test's call for CC1=C(CC/C(C)=C/CCC2=CCC(C3=CC(=O)OC3O)OC2O)C(C)(C)CCC1 (stereo not drawn) is ___
[out] inactive

[in] Fill in: this test's call for CN1C(=O)CCS(=O)(=O)C1c1ccc(Cl)cc1 (stereo not drawn) is ___
[out] inactive

[in] Fill in: this test's call for Cc1c(N)nc([C@H](CC(N)=O)NC[C@@H](N)C(N)=O)nc1C(=O)N[C@H](C(=O)N[C@@H](C)[C@H](O)[C@@H](C)C(=O)N[C@@H](C(=O)NCCc1nc(-c2nc(C(=O)NCCC[S+](C)C)cs2)cs1)[C@@H](C)O)C(O[C@H]1O[C@H](CO)[C@H](O)[C@@H](O)[C@H]1O[C@H]1O[C@H](CO)[C@@H](O)[C@H](OC(N)=O)[C@@H]1O)c1cnc[nH]1 (stereo partly drawn) is ___
[out] inactive

[in] Fill in: this test's call for `CO/C1=C/C(C)=C\[C@@H](C)[C@@H](O)[C@@H](C)C/C(C)=C\C=C/[C@H](OC)[C@@H]([C@@H](C)[C@@H](O)[C@H](C)[C@@]2(O)C[C@@H](O)[C@H](C)[C@@H](C(C)C)O2)OC1=O` is ___
[out] active

[in] Fill in: this test's call for `O=C(O)c1nn(Cc2ccc(Cl)cc2Cl)c2ccccc12` is ___
[out] inactive

[in] Fill in: this test's call for `Cn1cc(C2=C(c3cn(C4CCN(Cc5ccccn5)CC4)c4ccccc34)C(=O)NC2=O)c2ccccc21` is ___
[out] inactive

[in] Fill in: this test's call for `COc1ccc(N(C(=O)Oc2c(C)cccc2C)c2ccnc(Nc3ccc(N4CCN(C)CC4)cc3)n2)c(OC)c1` is ___
[out] inactive

[in] Fill in: this test's call for CC(NC(C)(C)C)C(=O)c1cccc(Cl)c1 (stereo not drawn) is ___
[out] inactive

Ref: PubChem BioAssay
